# maps each entry to its inhibition at 280.212 g/ha
Tested on: Giant Foxtail
Assay: post-emergence herbicide test
Type: in vivo
Settings: Setaria faberi, post-emergence, 0.25 lb/A; read-out: % plant inhibition
Observed Property: inhibition at 280.212 g/ha (%)

- Compound: "Cc1c(-c2cc(CSCC(C)C)c(Cl)cc2F)nn(C)c1C(F)(F)F [Compound 32]"
  Quantitative Result: 45
- Compound: "CCOC(=O)COC(=O)c1cc(-c2nn(C)c(C(F)(F)F)c2C)c(F)cc1Cl [Compound 17]"
  Quantitative Result: 45
- Compound: "CCCCCCCCCCCCOC(=O)c1cc(-c2nn(C)c(C(F)(F)F)c2C)c(F)cc1Cl [Compound 49]"
  Quantitative Result: 0
- Compound: "Cc1c(-c2cc(C(=O)OC3CCOC3)c(Cl)cc2F)nn(C)c1C(F)(F)F (stereo not shown) [Compound 25]"
  Quantitative Result: 75
